test-name: basal 3T3-L1 adipocyte mitochondrial potential changes, profiling panel, cell-based, JC-1 fluorescence, 3T3-L1 adipocytes, 24 h, 100 nL compound (AID 1168); note: test concentration not given here
experimental-parameters: JC-1 mitochondrial fluorescence, higher = more signal, called active from +8 up or from −8 down
observation-type: z-score
Respond with the number and no other words.

(Q) Reported z-score for COC(=O)c1c2oc(c1C(=O)OC)C(=O)N(Cc1ccccc1)Cc1cn(nn1)C[C@H](Cc1ccccc1)NC(=O)N[C@H](CO)CC2 : what is it?
(A) -0.397

(Q) Form field: reported z-score of NC(=O)NCC#Cc1ccc2c(c1)[C@]1(C(=O)N2)[C@H](C(=O)NC[C@H](O)c2ccccc2)[C@H]2C(=O)O[C@H](c3ccccc3)[C@H](c3ccccc3)N2[C@@H]1c1ccc(OCCO)cc1
(A) -0.183

(Q) Would you mind telling me what z-score value was observed for Cc1ccc(S[C@]2(C(=O)O)CC(=O)N(Cc3cc(C(F)(F)F)cc(C(F)(F)F)c3)[C@@H]2c2ccc(CO)cc2)cc1 ?
(A) -0.717

(Q) z-score for COCCOC(=O)N1C(=O)[C@@]2(c3cc(C#CC4=CCCCC4)ccc31)[C@H](c1ccc(OCCO)cc1)N1[C@H](c3ccccc3)[C@H](c3ccccc3)OC(=O)[C@H]1[C@@H]2C(=O)N1CCN(c2ncccn2)CC1 ?
(A) 1.46

(Q) What z-score value was documented for this compound, C[C@@H]1ON(c2ccc(C(=O)OC(C)(C)C)cc2)[C@H](c2ccc(O)cc2)[C@H]1C(=O)N1C(=O)OC[C@H]1Cc1ccccc1 ?
(A) -0.493

(Q) GET /values?readout=z-score&item= CC1CC/C=C\[C@H]2OC34C=CCN(c5ccc(Cl)cc5)C(=O)[C@H]3N(CCCCCO)C(=O)[C@]4(C)C2C(=O)O1 (some centres not stated)
(A) -0.0396

(Q) What value of measured z-score is listed for CCCC[C@@H]1C[C@H]1[C@@H](NC(=O)c1ccccc1)c1ccc(C(F)(F)F)cc1 ?
(A) -0.259
